All figures here come from PubChem BioAssay AID1919008.

- Test system: DMS-114 complex spheroids with HUVEC/MSC, growth % test/control
- run.description: Anticancer human tumor DMS-114 cell line growth inhibition [AhR];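 also: spheroids exposed to agents for 7 days before readout; 100% = DMSO vehicle control wells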
- condition.summary: second compound 3.16 µM; first compound 1 µM; stronger effect = lower value
Overview of reported viability, T/C across a group of compounds:
metric.name: viability, T/C (%)

Nc1ccn(C2OC(CO)C(O)C2(F)F)c(=O)n1 (stereo not drawn) + Cc1ccccc1N=Nc1ccc(NC(=O)c2ccnn2C)c(C)c1: 24.9
CC1(C)CCC(CN2CCN(c3ccc(C(=O)NS(=O)(=O)c4ccc(NCC5CCOCC5)c([N+](=O)[O-])c4)c(Oc4cnc5[nH]ccc5c4)c3)CC2)=C(c2ccc(Cl)cc2)C1 + Cc1ccccc1N=Nc1ccc(NC(=O)c2ccnn2C)c(C)c1: 110
Nc1ccn(C2OC(CO)C(O)C2(F)F)c(=O)n1 (stereo not drawn) + CC(CO)NC(=O)c1cc(-c2ccc(Cl)cc2)nn(-c2cnn(C)c2)c1=O: 10.6
